- procedure.details: clinical
- recorded.conditions: male, human, plasma, 4 mg
attribute.measured: concentration at 20 h (ng/mL)
Express it in ng/mL; write the number only.

Problem: Tell us which concentration at 20 h value is on record for C[C@H](Cc1cc2c(c(C(N)=O)c1)N(CCCO)CC2)NCCOc1ccccc1OCC(F)(F)F [Silodosin]
Result: 5.93

---

- procedure.details: Pharmacokinetic Study on Silodosin (Study 98364)
- Assay type: in vivo
- recorded.conditions: male, human, plasma, 4 mg, 4 mg once daily 7 days, Day 7, 6 h, mean; read-out: Blood Plasma Concentrations
attribute.measured: concentration at 6 h (ng/mL)
Express it in ng/mL; write the number only.

Problem: Tell us which concentration at 6 h value is on record for C[C@H](Cc1cc2c(c(C(N)=O)c1)N(CCCO)CC2)NCCOc1ccccc1OCC(F)(F)F [Silodosin]
Result: 7.26

The measurements presented in this section are drawn from patent US20110319464A1.
